# Target Desc: T1, human DLL3 on DLL3-expressing tumor cell lines (human, UniProt Q9NYJ7 27-618)
# T1 sequence: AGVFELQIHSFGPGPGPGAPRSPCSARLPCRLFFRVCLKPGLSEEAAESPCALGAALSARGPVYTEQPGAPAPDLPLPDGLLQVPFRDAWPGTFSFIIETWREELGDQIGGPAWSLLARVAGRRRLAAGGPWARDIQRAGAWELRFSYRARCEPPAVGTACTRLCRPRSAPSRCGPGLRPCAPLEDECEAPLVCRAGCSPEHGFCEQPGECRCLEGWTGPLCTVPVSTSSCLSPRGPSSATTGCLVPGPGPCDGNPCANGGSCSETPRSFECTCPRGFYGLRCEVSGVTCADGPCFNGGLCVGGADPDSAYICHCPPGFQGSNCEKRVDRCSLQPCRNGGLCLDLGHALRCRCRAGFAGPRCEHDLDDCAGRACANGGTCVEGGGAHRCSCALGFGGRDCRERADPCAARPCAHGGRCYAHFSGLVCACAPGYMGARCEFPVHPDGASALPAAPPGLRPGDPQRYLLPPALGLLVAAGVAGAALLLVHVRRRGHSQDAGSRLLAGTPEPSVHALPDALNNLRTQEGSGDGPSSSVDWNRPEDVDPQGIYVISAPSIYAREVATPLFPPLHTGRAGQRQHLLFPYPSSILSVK
# Experiment: cell-based or functional assay

{"Binder": "4H04 anti-DLL3 trispecific protein (other, not shown: linker 1808, anti-albumin sdAb, linker 1808, anti-CD3 fragment, His6 1819) EVQLVESGGGLVQPGGSLTLSCAASGSSVKFLSMAWYRQAPGKKRELVAGVSADGSTDYIDSVKGRFTISRDNAKNSVYLQMNSLRAEDTAVYYCYAYEWTTRYTYWGQGTLVTVSS", "DMS-153 TDCC EC50 [nM]": 0.051}
{"Binder": "4E02 anti-DLL3 trispecific protein (other, not shown: linker 1808, anti-albumin sdAb, linker 1808, anti-CD3 fragment, His6 1819) EVQLVESGGGLVQPGGSLTLSCAASGSQVSFLSMAWYRQAPGKKRELVAGISADGSTVYIDSVKGRFTISRDNAKNSVYLQMNSLRAEDTAVYYCYAYRWSTRYTYWGQGTLVTVSS", "DMS-153 TDCC EC50 [nM]": 0.041}
